- ASSAYED_SYSTEM: UniProt:Q9UNQ0
- Sequence (Q9UNQ0 whole entry): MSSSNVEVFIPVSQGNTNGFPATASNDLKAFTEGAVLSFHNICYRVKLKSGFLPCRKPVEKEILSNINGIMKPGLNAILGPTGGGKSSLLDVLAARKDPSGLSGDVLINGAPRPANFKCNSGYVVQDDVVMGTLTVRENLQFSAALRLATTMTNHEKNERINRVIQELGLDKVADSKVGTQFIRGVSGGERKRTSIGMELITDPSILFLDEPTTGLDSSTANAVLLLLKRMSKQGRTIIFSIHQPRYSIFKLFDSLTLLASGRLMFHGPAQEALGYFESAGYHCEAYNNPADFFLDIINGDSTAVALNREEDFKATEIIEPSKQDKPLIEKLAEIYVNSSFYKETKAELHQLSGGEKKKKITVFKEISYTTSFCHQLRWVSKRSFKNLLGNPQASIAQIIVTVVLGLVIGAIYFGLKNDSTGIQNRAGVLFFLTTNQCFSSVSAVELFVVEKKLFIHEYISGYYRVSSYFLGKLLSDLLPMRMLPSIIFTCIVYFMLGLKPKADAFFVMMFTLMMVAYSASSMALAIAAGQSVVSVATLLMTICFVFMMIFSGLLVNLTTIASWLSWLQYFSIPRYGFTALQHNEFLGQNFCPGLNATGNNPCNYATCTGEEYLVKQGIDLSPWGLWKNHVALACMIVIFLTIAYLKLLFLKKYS
- ASSAY_DETAILS: Vanadate sensitive ABCG2-ATPase assay in ABCG2-M (mammalian cell) membranes
- CONDITION_SUMMARY: read-out: KM of vanadate sensitive basal ATPase activity with respect to ATP; ABCG2-M membranes
- Method: Human membrane vesicle preparations (ABCG2-M) as well as membrane vesicle preparations obtained from insect cells expressing ABCG2, (MXR-Sf9) were obtained from Solvo Biotechnology (Budapest, Hungary). Both membranes are overexpressing the wild type version of ABCG2. The insect membrane vesicle preparations were produced using recombinant baculoviruses encoding ABCG2 (Ozvegy et al., 2002). […] Membrane protein content was determined using the BCA method (Pierce Biotechnology, Rockford, Ill., USA). […]
READOUT_LABEL: Km (µM)
Record the value in µM, omitting the unit from your answer.

# input Any idea what its Km is? The compound is Nc1ncnc2c1ncn2[C@@H]1O[C@H](COP(=O)(O)OP(=O)(O)OP(=O)(O)O)[C@@H](O)[C@H]1O
# output 2200

Data origin: patent US8129197B2
